B1: INTS4 (parent)
chain: YSSGEFSSGRKWGDDAPKEEVDTG

- Variants of: B1
- assay-notes: protein stability index of a GFP-peptide fusion (GPS, HEK-293T) (PSI 1-6); higher = more stable;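 further: lentivirally expressed fusions sorted by FACS into six bins by GFP to DsRed ratio, PSI derived from sequencing read proportions per bin multiplied by bin number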
- test-parameters: c terminus: a fixed tail appended
Quick rule for you: protein stability index at 3 or higher means YES, lower means NO.

YSSGEFSSGRKWGDDAPKEEVDTQ [G24Q] ... NO
YSSGEFSSGRAWGDDAPKEEVDTG [K11A] ... NO
YSSGEFSSGCKWGDDAPKEEVDTG [R10C] ... NO
YSSGEKSSGRKWGDDAPKEEVDTG [F6K] ... YES
YSSGEFSSGRKWGWDAPKEEVDTG [D14W] ... NO
YSGGEFSSGRKWGDDAPKEEVDTG [S3G] ... YES

# evaluate next
Prompt: Does protein stability index meet or surpass 3 for YSSHEFSSGRKWGDDAPKEEVDTG [G4H] ?
Response: YES
